Target: T1, ALKBH2 (Homo sapiens, UniProt Q6NS38 1-261)
T1 sequence: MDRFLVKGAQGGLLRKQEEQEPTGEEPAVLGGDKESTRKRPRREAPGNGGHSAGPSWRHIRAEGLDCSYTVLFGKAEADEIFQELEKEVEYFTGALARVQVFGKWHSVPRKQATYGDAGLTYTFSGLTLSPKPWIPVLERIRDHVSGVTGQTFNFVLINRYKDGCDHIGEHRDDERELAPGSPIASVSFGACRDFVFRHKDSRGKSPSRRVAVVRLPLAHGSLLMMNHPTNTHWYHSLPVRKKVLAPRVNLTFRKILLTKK
Test: stopped-flow FRET; Fe(II), 2OG; enzyme-product complex after εA repair; 50 mM HEPES-KOH pH 7.5, 50 mM KCl, 10 mM MgCl2, 25 °C (titration, 1 uM enzyme per legend); 2 mM EDTA for apo; stopped-flow buffer not printed in the material
Conditions: protein: recombinant; (Ni-chelating column); label: 5'-FAM and 3'-BHQ1 on strand 1; blunt
pKd: −log10 of the molar value.

{"binder": "repaired product of m1A_FRET or εA_FRET (dsDNA) DNA 1: ACAGGATCCGGCATA DNA 2: TATGCCGGATCCTGT", "pKd": 6.40}
